- measurement.target: T1, human LAG-3 on the cell surface (human, UniProt P18627 23-525)
- T1 construct: whole, on cells; also called cells expressing the human LAG-3
- T1 sequence (looked up): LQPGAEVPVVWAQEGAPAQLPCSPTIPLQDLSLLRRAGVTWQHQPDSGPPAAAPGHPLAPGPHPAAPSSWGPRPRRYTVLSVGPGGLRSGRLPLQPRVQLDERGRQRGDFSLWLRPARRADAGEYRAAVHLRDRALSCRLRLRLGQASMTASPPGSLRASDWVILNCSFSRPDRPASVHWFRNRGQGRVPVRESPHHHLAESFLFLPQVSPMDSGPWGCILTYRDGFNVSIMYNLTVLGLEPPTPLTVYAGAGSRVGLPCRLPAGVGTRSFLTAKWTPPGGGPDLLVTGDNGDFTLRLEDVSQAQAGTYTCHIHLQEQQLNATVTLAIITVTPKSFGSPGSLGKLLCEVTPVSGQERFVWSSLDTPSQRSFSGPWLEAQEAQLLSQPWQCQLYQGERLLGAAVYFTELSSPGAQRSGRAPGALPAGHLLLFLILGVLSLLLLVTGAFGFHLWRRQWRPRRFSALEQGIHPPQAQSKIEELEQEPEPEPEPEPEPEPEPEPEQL
- method.summary: flow cytometry on cells expressing the human LAG-3, PE anti-human IgG; N = 4
value.type: EC50

binder	result.value
MV705-3-VH-DE + ED-IgG4 (antibody, V domains shown, human IgG4 S228P constant region, MV705-3 lambda light chain; also called 13563; 13563 (DE + ED)) VH: EVQLLESGAEVKKPGASVKVSCKASGYTFTSYGISWVRQAPGQGLEWMGWISAYNGNTNYAQKLQGRVTMTTDTSTSTAYMELRSLRSDETAVYYCARDGWWELLRPEDAFDIWGQGTTVTVSS VL: QLVLTQSPSVSVSPGQTASITCSGDKLGDKYAYWYQQKPGQAPVLVIYYDSDRPSGIPERFSGSNSGNTATLTISRVEAGDEADYYCQVWDSSSDQVVFGGGTQLTVLG	4.7 ng/mL
MV705-3-VH-ED + DD-IgG4 (antibody, V domains shown, human IgG4 S228P constant region, MV705-3 lambda light chain; also called 13381; 13381 (ED + DD)) VH: EVQLLESGAEVKKPGASVKVSCKASGYTFTSYGISWVRQAPGQGLEWMGWISAYNGNTNYAQKLQGRVTMTTDTSTSTAYMELRSLRSEDTAVYYCARDGWWELLRPDDAFDIWGQGTTVTVSS VL: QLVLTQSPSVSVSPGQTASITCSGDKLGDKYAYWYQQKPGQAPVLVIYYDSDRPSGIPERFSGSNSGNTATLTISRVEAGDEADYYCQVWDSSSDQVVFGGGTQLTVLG	2.2 ng/mL
MV705-3-VH-DE + DD-IgG4 (antibody, V domains shown, human IgG4 S228P constant region, MV705-3 lambda light chain; also called 13380; 13380 (DE + DD)) VH: EVQLLESGAEVKKPGASVKVSCKASGYTFTSYGISWVRQAPGQGLEWMGWISAYNGNTNYAQKLQGRVTMTTDTSTSTAYMELRSLRSDETAVYYCARDGWWELLRPDDAFDIWGQGTTVTVSS VL: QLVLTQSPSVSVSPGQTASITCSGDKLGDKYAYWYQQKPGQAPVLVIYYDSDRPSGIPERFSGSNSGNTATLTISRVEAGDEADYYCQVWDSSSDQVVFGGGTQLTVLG	1.8 ng/mL
